Form field: Kd (one value per entry).
Molecular target: T1, rat IL-17A (rat, UniProt Q61453 18-150, limits assumed)
T1 construct: Purified recombinant protein in SPR
T1 sequence (looked up): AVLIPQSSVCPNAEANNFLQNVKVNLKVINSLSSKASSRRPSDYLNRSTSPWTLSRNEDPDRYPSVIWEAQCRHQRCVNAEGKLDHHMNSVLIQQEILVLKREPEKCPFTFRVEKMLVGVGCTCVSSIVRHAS
Assay: SPR (Biacore 3000), antibody captured by anti-Fc, antigen in solution;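 also: purified recombinant IL-17 antigens flowed over captured antibodies in HBS-EP buffer, global Langmuir one-to-one fit of association and dissociation phases, KD derived from koff over kon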

[[record]]
binder = "IL17-h5C5.8 (antibody, V domains shown, IgG; constant regions not specified; also called h5C5.8 (VH.1-Vk.1a)) VH: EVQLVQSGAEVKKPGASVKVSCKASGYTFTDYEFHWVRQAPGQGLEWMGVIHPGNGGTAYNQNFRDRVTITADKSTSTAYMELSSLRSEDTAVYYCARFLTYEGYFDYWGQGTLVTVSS VL: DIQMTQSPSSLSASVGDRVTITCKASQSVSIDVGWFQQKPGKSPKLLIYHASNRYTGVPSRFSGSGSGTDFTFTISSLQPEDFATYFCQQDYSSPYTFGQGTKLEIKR"
result = "14.2 nM"


Query binder follows.
Query: Kd; subject: IL17-h5C5.21 (antibody, V domains shown, IgG; constant regions not specified; also called h5C5.21 (VH.1b-Vk.3c)) VH: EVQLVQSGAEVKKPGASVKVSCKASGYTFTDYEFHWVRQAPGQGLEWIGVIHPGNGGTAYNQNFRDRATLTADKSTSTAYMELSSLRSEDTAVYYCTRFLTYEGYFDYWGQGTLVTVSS VL: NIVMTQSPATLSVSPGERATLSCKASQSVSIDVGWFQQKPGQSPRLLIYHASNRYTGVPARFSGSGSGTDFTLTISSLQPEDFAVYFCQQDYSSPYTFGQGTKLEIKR 5.97 nM
